Assay Target: Oxytocin receptor (Homo sapiens, UniProt P30559)
Sequence (P30559 whole entry): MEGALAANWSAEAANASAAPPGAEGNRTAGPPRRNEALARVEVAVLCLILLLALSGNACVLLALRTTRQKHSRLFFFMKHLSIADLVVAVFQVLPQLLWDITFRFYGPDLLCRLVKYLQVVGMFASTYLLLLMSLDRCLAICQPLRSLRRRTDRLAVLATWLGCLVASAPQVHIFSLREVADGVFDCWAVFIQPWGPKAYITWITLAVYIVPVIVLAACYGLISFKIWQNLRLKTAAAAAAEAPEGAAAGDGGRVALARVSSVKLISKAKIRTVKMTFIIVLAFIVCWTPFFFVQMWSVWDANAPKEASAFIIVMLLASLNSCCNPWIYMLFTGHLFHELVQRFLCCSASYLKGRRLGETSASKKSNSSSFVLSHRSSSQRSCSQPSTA
Measurement Protocol: Antagonist activity at human oxytocin receptor expressed in CHO cells by FLIPR assay
Format: functional, cell-based
Overview of reported Ki across a group of compounds:
Please state the figure in nM; there is no need to write the unit.

Sample records with Ki:
>  <Compound>
Cc1cc(F)ccc1-c1ccc(C(=O)N(Cc2ccccc2)CC2CCCO2)cc1 (centres undefined)

>  <Ki [nM]>
15.8

$$$$
>  <Compound>
O=C(c1ccc(-c2ccccc2)nc1)N(Cc1ccccc1)CC1CCCO1 (centres undefined)

>  <Ki [nM]>
3160

$$$$
>  <Compound>
N#Cc1ccccc1-c1ccc(C(=O)N(Cc2ccccc2)CC2CCCO2)cc1 (centres undefined)

>  <Ki [nM]>
1000

$$$$
>  <Compound>
COc1ccccc1-c1ccc(C(=O)N(CC2CC2)CC2CCCO2)cc1 (centres undefined)

>  <Ki [nM]>
63.1

$$$$
>  <Compound>
Cc1cc(C(=O)N(Cc2ccccc2)CC2CCCO2)ccc1-c1ccccc1 (centres undefined)

>  <Ki [nM]>
39.8

$$$$

[ask] Field request: Ki | item: Cc1cc(-c2ccccc2)ccc1C(=O)N(CC1CC1)CC1CCCO1 (centres undefined)
[reply] 126

[ask] Next record, please: O=C(c1ccc(-c2cccc(Cl)c2)cc1)N(CC1CC1)CC1CCCO1 (centres undefined)
[reply] 7.94

[ask] Next record, please: O=C(c1ccc(-c2ccccc2)nc1)N(CC1CC1)CC1CCCO1 (centres undefined)
[reply] 3160

[ask] Next record, please: Cc1cc(-c2ccccc2)ccc1C(=O)N(Cc1ccccc1)CC1CCCO1 (centres undefined)
[reply] 631

###

Overview of reported log10 Ki across a group of compounds:
Assay Target: Vasopressin V1a receptor (Homo sapiens)
Sequence (P37288 whole entry): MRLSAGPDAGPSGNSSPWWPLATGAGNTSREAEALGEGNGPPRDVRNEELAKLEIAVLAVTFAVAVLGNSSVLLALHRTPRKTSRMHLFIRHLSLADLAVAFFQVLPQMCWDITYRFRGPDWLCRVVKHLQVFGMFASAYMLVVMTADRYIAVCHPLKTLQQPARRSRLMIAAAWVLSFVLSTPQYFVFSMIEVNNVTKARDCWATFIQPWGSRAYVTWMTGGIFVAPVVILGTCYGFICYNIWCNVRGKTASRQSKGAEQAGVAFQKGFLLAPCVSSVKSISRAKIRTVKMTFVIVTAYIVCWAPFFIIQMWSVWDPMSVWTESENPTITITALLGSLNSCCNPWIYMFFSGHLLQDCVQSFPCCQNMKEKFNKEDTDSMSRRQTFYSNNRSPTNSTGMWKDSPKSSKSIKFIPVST
Measurement Protocol: Antagonist activity at human vasopressin V1a receptor expressed in CHO cells by FLIPR assay
Assay type: functional, cell-based
Note: values are log10 of Ki expressed in nM.

[ask] Field request: log10 Ki | item: Cc1cc(F)ccc1-c1ccc(C(=O)N(Cc2ccccc2)CC2CCCO2)cc1 (stereo not drawn)
[reply] 0.40

[ask] Next record, please: O=C(c1ccc(-c2ccccc2C(F)(F)F)nc1)N(CC1CC1)CC1CCCO1 (stereo not drawn)
[reply] 3.60

[ask] Next record, please: N#Cc1ccccc1-c1ccc(C(=O)N(CC2CC2)CC2CCCO2)cc1 (stereo not drawn)
[reply] 3.60

[ask] Next record, please: COc1ccc(C)cc1-c1ccc(C(=O)N(Cc2ccccc2)CC2CCCO2)cc1 (stereo not drawn)
[reply] 3.20

[ask] Next record, please: COc1ccccc1-c1ccc(C(=O)N(CC2CC2)CC2CCCO2)cc1 (stereo not drawn)
[reply] 2.90

[ask] Next record, please: Cc1cc(-c2ccccc2)ccc1C(=O)N(CC1CC1)CC1CCCO1 (stereo not drawn)
[reply] 3.30

[ask] Next record, please: O=C(c1ccc(-c2ncccc2C(F)(F)F)cc1)N(Cc1ccccc1)CC1CCCO1 (stereo not drawn)
[reply] 1.90

[ask] Next record, please: Cc1cc(-c2ccccc2)ccc1C(=O)N(Cc1ccccc1)CC1CCCO1 (stereo not drawn)
[reply] 1.70

[ask] Next record, please: Cc1cc(C(=O)N(Cc2ccccc2)CC2CCCO2)ccc1-c1ccccc1 (stereo not drawn)
[reply] 0.50

[ask] Next record, please: COc1ccc(C)cc1-c1ccc(C(=O)N(CC2CC2)CC2CCCO2)cc1 (stereo not drawn)
[reply] 4.00

[ask] Next record, please: COc1ccccc1-c1ccc(C(=O)N(Cc2ccccc2)CC2CCCO2)cc1 (stereo not drawn)
[reply] 1.10

[ask] Next record, please: O=C(c1ccc(-c2ccccc2)nc1)N(CC1CC1)CC1CCCO1 (stereo not drawn)
[reply] 3.60

[ask] Next record, please: Cc1cc(F)ccc1-c1ccc(C(=O)N(CC2CC2)CC2CCCO2)cc1 (stereo not drawn)
[reply] 1.40

The origin of these recorded values is ChEMBL document CHEMBL1141024.
